Data origin, for the record: ChEMBL document CHEMBL1255336

# assay.details: AUClast in fasting healthy human at 1000 mg, po administered as single dose measured after 48 hrs
# Format: ADME, organism-based
# Set-up: dose 1000 mg, time < 48 hr, route oral
# cond: plasma
endpoint.label: AUC(0-t) at 48 h (ng·h/mL)
I only need the number, in ng·h/mL, no unit after it.

**Query** Tell us which AUC(0-t) at 48 h value is on record for "O=C(NN1C(=O)[C@@H]2[C@@H]3C=C[C@@H]([C@H]4C[C@@H]34)[C@@H]2C1=O)c1ccc(C(F)(F)F)cc1"
**Result** 21100

----------
# assay.details: Tmax in fasting healthy human at 1000 mg, po administered as single dose measured after 48 hrs
# Assay type: ADME, organism-based
# cond: in vivo
endpoint.label: Tmax
Quote the value and follow it with the unit of measurement.

**Query** Give the value of Tmax reported for the following: O=C(NN1C(=O)[C@@H]2[C@@H]3C=C[C@@H]([C@H]4C[C@@H]34)[C@@H]2C1=O)c1ccc(C(F)(F)F)cc1 [TECOVIRIMAT]
**Result** 3 h

----------
# assay.details: AUC(0 to infinity) in fasting healthy human at 500 mg, po administered as single dose measured after 48 hrs
# Type: ADME, organism-based
# Set-up: dose 500 mg, route oral, time infinity
# cond: plasma
endpoint.label: AUC(0-inf) (ng·h/mL)
Dear colleague, please return just the value in ng·h/mL, with no unit written.

**Query** Quote AUC(0-inf) reported for "O=C(NN1C(=O)[C@@H]2[C@@H]3C=C[C@@H]([C@H]4C[C@@H]34)[C@@H]2C1=O)c1ccc(C(F)(F)F)cc1" please.
**Result** 9810

----------
# assay.details: Terminal half life in fasting healthy human at 1000 mg, po administered as single dose measured after 48 hrs
# Format: ADME, organism-based
# cond: in vivo
endpoint.label: half-life

**Query** Tell me measured half-life for "O=C(NN1C(=O)[C@@H]2[C@@H]3C=C[C@@H]([C@H]4C[C@@H]34)[C@@H]2C1=O)c1ccc(C(F)(F)F)cc1" please.
**Result** 40 h

----------
# assay.details: Plasma clearance in nonfasting healthy human at 1000 mg, po administered as single dose measured after 72 hrs
# Assay type: ADME, organism-based
endpoint.label: CL/F

**Query** Specify reported CL/F for the compound shown: "O=C(NN1C(=O)[C@@H]2[C@@H]3C=C[C@@H]([C@H]4C[C@@H]34)[C@@H]2C1=O)c1ccc(C(F)(F)F)cc1"
**Result** 513 mL/min

----------
# System: Homo sapiens
# assay.details: Median half life in fasting healthy human at 1000 mg, po administered as single dose measured after 48 hrs
# Format: ADME, organism-based
# cond: in vivo
endpoint.label: t1/2 (h)
Just the number please, in h, no unit attached.

**Query** Give reported t1/2 value for O=C(NN1C(=O)[C@@H]2[C@@H]3C=C[C@@H]([C@H]4C[C@@H]34)[C@@H]2C1=O)c1ccc(C(F)(F)F)cc1 [TECOVIRIMAT]
**Result** 19.8

----------
# assay.details: Terminal half life in fasting healthy human at 2000 mg, po administered as single dose measured after 48 hrs
# Assay type: ADME, organism-based
# cond: in vivo
endpoint.label: half-life (min)
Numeric answer only, unit min assumed.

**Query** Look up half-life of O=C(NN1C(=O)[C@@H]2[C@@H]3C=C[C@@H]([C@H]4C[C@@H]34)[C@@H]2C1=O)c1ccc(C(F)(F)F)cc1 [TECOVIRIMAT] and report it.
**Result** 1320

----------
# assay.details: Apparent oral clearance in fasting healthy human at 2000 mg, po administered as single dose measured after 48 hrs
# Assay type: ADME, organism-based
# cond: in vivo
endpoint.label: CL/F
Could you write the number and then its unit?

**Query** # return recorded CL/F for entry "O=C(NN1C(=O)[C@@H]2[C@@H]3C=C[C@@H]([C@H]4C[C@@H]34)[C@@H]2C1=O)c1ccc(C(F)(F)F)cc1"
**Result** 1320 mL/min
